biological target: human mGluR5a receptor (Homo sapiens, UniProt P41594); construct: cDNA subcloned into pcDNA3.1(-); experiment: Cell-based functional Ca2+ mobilization assay (FDSS), potentiation of glutamate EC20 response; conditions: maximum % effect in concentration-response curve, as percent of response to maximally effective glutamate
Sequence (P41594 21-1180 isoform P41594-2 limits assumed): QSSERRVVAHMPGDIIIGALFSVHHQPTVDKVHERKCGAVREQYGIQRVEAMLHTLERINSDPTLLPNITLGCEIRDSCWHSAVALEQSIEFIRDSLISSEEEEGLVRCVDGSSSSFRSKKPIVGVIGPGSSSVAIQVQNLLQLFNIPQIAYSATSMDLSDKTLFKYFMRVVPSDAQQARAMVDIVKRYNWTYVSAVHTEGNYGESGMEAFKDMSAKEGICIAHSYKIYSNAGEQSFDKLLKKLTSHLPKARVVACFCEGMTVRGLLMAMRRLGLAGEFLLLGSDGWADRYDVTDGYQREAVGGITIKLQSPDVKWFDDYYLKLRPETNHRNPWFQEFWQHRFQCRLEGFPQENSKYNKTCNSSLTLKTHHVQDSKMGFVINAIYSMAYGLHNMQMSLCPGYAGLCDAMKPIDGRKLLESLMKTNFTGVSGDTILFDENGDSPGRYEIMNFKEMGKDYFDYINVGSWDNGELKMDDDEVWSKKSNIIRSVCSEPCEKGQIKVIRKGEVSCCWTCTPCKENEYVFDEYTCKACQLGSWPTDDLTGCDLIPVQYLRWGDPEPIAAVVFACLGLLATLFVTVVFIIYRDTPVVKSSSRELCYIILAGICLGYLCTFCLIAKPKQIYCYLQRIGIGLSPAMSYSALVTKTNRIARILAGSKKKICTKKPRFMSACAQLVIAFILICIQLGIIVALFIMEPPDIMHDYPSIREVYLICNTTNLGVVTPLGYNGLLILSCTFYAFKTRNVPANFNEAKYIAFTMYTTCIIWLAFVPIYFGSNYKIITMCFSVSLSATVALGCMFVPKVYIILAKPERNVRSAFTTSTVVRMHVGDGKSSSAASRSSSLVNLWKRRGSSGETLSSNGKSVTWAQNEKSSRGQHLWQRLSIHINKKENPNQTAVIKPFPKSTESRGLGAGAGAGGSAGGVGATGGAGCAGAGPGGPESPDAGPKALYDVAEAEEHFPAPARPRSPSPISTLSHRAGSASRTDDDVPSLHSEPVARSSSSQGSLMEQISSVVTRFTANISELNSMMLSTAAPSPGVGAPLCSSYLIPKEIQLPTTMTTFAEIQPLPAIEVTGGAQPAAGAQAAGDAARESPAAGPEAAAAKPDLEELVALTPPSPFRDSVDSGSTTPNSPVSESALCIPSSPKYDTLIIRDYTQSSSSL
assay-metric: Emax (%)
API: value field is a number in %; no unit string.

Emax in this record for COc1nc(N2C(=O)c3cc(COc4ccccc4)nn3C[C@H]2C)ncc1C [Example 156] : 79

For reference, reported Emax for Cc1ncc(N2CCn3nc(COc4ccccc4)cc3C2=O)cn1 [Example 33] stands at 67

Note to self: Emax recorded for CC(C)CCc1cccc(N2CCn3nc(COc4ccccc4)cc3C2=O)n1 [Example 65] was 74

GET /value?item= Cc1cccnc1N1CCn2nc(COc3ccccc3)cc2C1=O [Example 30] &field=Emax returns 75

Item: CCOc1cccc(N2CCn3nc(COc4ccccc4)cc3C2=O)c1 [Example 59] | Emax: 57

GET /value?item= COc1ncccc1N1C(=O)c2cc(COc3ccccc3)nn2C[C@H]1C [Example 148] &field=Emax returns 71

Please fill in: Emax reported for Cc1cc(F)cc(N2CCn3nc(COc4ccccc4)cc3C2=O)c1 [Example 297] = 71

Query O=C1c2cc(COc3ccccc3)nn2CCN1c1ccncc1 [Example 14] yields Emax of 72

Form field Emax, entry COCCOc1cccc(N2CCn3nc(COc4ccccc4)cc3C2=O)n1 [Example 85] : 72

Lab note: Cc1cc(OCc2cc3n(n2)CCN(c2ccc(F)cc2)C3=O)cc(C)n1 [Example 175] gave Emax of 22

Just for reference, patent US8592422B2 is where these values come from.
